test system: LOC_OS01G52050-cb004; assay: thermal shift delta Tm vs DMSO control; higher = stronger stabilization (binding); details: 12.5 µM; protein concentration 2 µM;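 further: purified Escherichia coli-expressed rice kinase domain construct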
Sequence (as listed by the source): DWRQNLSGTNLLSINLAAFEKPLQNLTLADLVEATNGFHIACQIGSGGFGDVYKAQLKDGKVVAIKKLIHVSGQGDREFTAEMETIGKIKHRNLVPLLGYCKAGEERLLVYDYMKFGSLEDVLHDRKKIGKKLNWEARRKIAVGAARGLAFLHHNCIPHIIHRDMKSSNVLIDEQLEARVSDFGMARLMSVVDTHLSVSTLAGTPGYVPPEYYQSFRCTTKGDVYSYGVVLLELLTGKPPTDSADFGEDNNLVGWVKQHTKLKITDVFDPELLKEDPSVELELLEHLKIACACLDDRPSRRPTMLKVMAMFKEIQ
Where a name gives a salt, the structure may show the parent alone.
Form field: thermal shift delta Tm (one value per entry).

Ask: Reported thermal shift delta Tm for LOC_OS01G52050-cb004, given CC(C)(C)NS(=O)(=O)c1cncc(-c2cc(F)c3nc(N)nn3c2)c1 ?
Reply: 0.57 °C

Ask: Hello, I am looking for reported thermal shift delta Tm with LOC_OS01G52050-cb004 for COc1ncc(-c2cc(-c3ncc(CN4C[C@@H](C)O[C@@H](C)C4)o3)c3cn[nH]c3c2)cc1NS(C)(=O)=O . Could you help?
Reply: -0.19 °C

Ask: What thermal shift delta Tm appears in the records for this compound with LOC_OS01G52050-cb004? CC1(C)C=Cc2c(ccc3c2OC[C@@H](c2ccc(O)cc2O)C3)O1
Reply: 4.83 °C

Ask: Tell me reported thermal shift delta Tm for Cc1ccc(CNc2ncnc3ccc(-c4ccc(CO)o4)cc23)o1 , tested with LOC_OS01G52050-cb004.
Reply: 1.21 °C

Ask: Query thermal shift delta Tm on LOC_OS01G52050-cb004 for CCn1c(=O)c(-c2ccc(-c3cncs3)cc2Cl)cc2cnc(Nc3ccc(N4CCN(C)CC4)cc3)nc21
Reply: -0.32 °C

Ask: // fetch LOC_OS01G52050-cb004 thermal shift delta Tm for Cc1[nH]c(/C=C2\C(=O)Nc3ccc(S(=O)(=O)Cc4c(Cl)cccc4Cl)cc32)c(C)c1C(=O)N1CCC[C@@H]1CN1CCCC1
Reply: 0.18 °C

Ask: Lab note: need thermal shift delta Tm with LOC_OS01G52050-cb004 for entry N#C/C(=C(/N)Sc1ccc(N)cc1)c1ccccc1C(F)(F)F , please look it up.
Reply: 0.3 °C

Ask: Kindly state the measured thermal shift delta Tm obtained for COc1ccc2c(Oc3ccc(NC(=O)c4c(C)n(CC(C)(C)O)n(-c5ccccc5)c4=O)nc3)ccnc2c1 with LOC_OS01G52050-cb004.
Reply: 1.2 °C

Ask: Give thermal shift delta Tm (LOC_OS01G52050-cb004) of the following compound: C[C@H]1CNCCCN1S(=O)(=O)c1cccc2cncc(F)c12 [Ripasudil (K-115) hydrochloride dihydrate]
Reply: 0.63 °C

----------
tested on: LOC_OS03G04050-cb001; test: thermal shift delta Tm vs DMSO control; higher = stronger stabilization (binding); settings: 12.5 µM; protein concentration 2 µM
OBSERVATION_TYPE: thermal shift delta Tm (°C)
Just the number please, in °C, no unit attached.

>>> numeric_value("COc1cc2ncnc(Nc3cccc(Cl)c3F)c2cc1OC(=O)N1CCN(C)C[C@H]1C")
0.43
>>> numeric_value("O=c1ncn2nc(Sc3ccc(F)cc3F)ccc2c1-c1c(Cl)cccc1Cl")
0.23

Ask: Looking for the measured thermal shift delta Tm of Cc1cnc(NC(=O)Nc2cc(Br)c(C)cc2OC[C@@H]2CNCCO2)cn1 , can you help?
Reply: 0.38

Ask: # input compound: CC(C)(C#N)c1ccc(N2C(=O)OCc3cnc4ccc(-c5cnc6ccccc6c5)cc4c32)cc1 ; wanted: its thermal shift delta Tm
Reply: 0.55

Ask: Look up thermal shift delta Tm for this compound: O=C(NC[C@H](O)CO)c1ccncc1Nc1ccc(I)cc1F
Reply: 0.21

Ask: Query (compound): Cc1cc(Nc2cc(N3CCN(C)CC3)nc(/C=C/c3ccccc3)n2)n[nH]1 [ENMD-2076 L-(+)-Tartaric acid] ; field requested: thermal shift delta Tm
Reply: 0.44

Ask: thermal shift delta Tm lookup needed for Cc1ccccc1-n1c(Cn2nc(-c3cccc(O)c3)c3c(N)ncnc32)nc2cccc(C)c2c1=O , thanks.
Reply: -0.24

Ask: Please give the measured thermal shift delta Tm for this compound: COc1ccc(Cl)c(Nc2nc3ccccc3nc2NS(=O)(=O)c2cccc(NC(=O)C(C)(C)N)c2)c1
Reply: 0.85

Ask: Which thermal shift delta Tm value belongs to Oc1cccc(-c2nc(N3CCOCC3)c3oc4ncccc4c3n2)c1 ?
Reply: 0.32

Ask: Field request: thermal shift delta Tm | item: COc1ccc(COc2ccc(Cc3cnc(N)nc3N)cc2OC)cc1
Reply: 0.43

Ask: Using the record for CCN(CC)CCNC(=O)c1c(C)[nH]c(/C=C2\C(=O)Nc3ccc(F)cc32)c1C , report its thermal shift delta Tm.
Reply: 0.04

Ask: Given the compound Cn1c2ccccc2c2c3c(c4c5ccccc5n(CCC#N)c4c21)CNC3=O , what is its reported thermal shift delta Tm?
Reply: 0.61

Ask: // returns reported thermal shift delta Tm for input O=c1cc(-c2ccccc2)oc2c(O)c(O)ccc12 [7,8-Dihydroxyflavone]
Reply: 1.54

Ask: I'd like to know its thermal shift delta Tm. The compound in question is CC(C)(C)c1nc(-c2cccc(NS(=O)(=O)c3c(F)cccc3F)c2F)c(-c2ccnc(N)n2)s1
Reply: 0.43

Ask: Please report the recorded thermal shift delta Tm for O=C(O)c1ccc2c(c1)nc(Nc1cccc(Cl)c1)c1ccncc12 .
Reply: 0.25

----------
system: LOC_OS01G13800-cb001; test: thermal shift delta Tm vs DMSO control; higher = stronger stabilization (binding); settings: 12.5 µM; protein concentration 2 µM
thermal shift delta Tm overview
Kindly provide the numeric value in °C only, without the unit symbol.

Reference set, count: 8
>>> numeric_value("CS(=O)(=O)N1CCN(Cc2cc3nc(-c4cccc5[nH]ncc45)nc(N4CCOCC4)c3s2)CC1")
0.43
>>> numeric_value("C=CC(=O)N1CCC(Oc2cc3c(Nc4ccc(Cl)c(Cl)c4F)ncnc3cc2OC)CC1 [Poziotinib (HM781-36B)]")
-0.34
>>> numeric_value("CCc1nc(-c2cccc(C)c2)c(-c2ccnc(NC(=O)c3ccccc3)c2)s1")
-0.71
>>> numeric_value("COc1ccc(CC(=O)Nc2nc3c(s2)CCc2ccccc2-3)cc1OC")
0.28
>>> numeric_value("Cn1c(=O)c(F)c(Nc2ccc(I)cc2F)c2c(=O)n(C[C@@H](O)CO)cnc21")
0.43
>>> numeric_value("N#Cc1c(NC(=O)c2cccc3ccccc23)sc2c1CCCC2")
0.52
>>> numeric_value("C[C@]1(O)C[C@@H](c2nc(-c3ccc4ccc(-c5ccccc5)nc4c3)c3c(N)nccn32)C1")
0.82
>>> numeric_value("CCN(CC)CCNC(=O)c1c(C)[nH]c(/C=C2\\C(=O)Nc3ccc(F)cc32)c1C [Sunitinib Malate]")
-0.1

Now examine the next entry.
Ask: Need thermal shift delta Tm of O=c1[nH]nc(Sc2ncc([N+](=O)[O-])s2)n1-c1ccc2c(c1)OCCO2 , thanks.
Reply: 1.65

----------
test system: LOC_OS05G07850-cb002; assay: thermal shift delta Tm vs DMSO control; higher = stronger stabilization (binding); conditions: 12.5 µM; protein concentration 2 µM
OBSERVATION_TYPE: thermal shift delta Tm (°C)
Hi! Could you send only the number? It should be in °C, unit omitted.

>>> numeric_value("CC(C)NC[C@@H](C(=O)N1CCN(c2ncnc3c2[C@H](C)C[C@H]3O)CC1)c1ccc(Cl)cc1")
0.18
>>> numeric_value("C[C@@H](Oc1ccc2[nH]nc(/C=C/c3cnn(CCO)c3)c2c1)c1c(Cl)cncc1Cl")
16
>>> numeric_value("Cc1nc(Nc2ncc(C(=O)Nc3c(C)cccc3Cl)s2)cc(N2CCN(CCO)CC2)n1")
4.35

Now let's try a different one.
Ask: // thermal shift delta Tm lookup, key: NC(=O)c1ccc2nc(-c3ccc(Oc4ccc(Cl)cc4)cc3)[nH]c2c1
Reply: 3.29

----------
Catalogue of thermal shift delta Tm readings, one per entry.
tested on: LOC_OS02G14120-cb001; assay: thermal shift delta Tm vs DMSO control; higher = stronger stabilization (binding); conditions: 12.5 µM; protein concentration 2 µM
Number only, in °C; omit the unit.

>>> numeric_value("Cc1ccccc1CN1C2=NCCN2C(=O)C2=C1CCN(Cc1ccccc1)C2")
-0.11

Ask: Name the reported thermal shift delta Tm value associated with the compound C[C@H](NC(=O)/C(C#N)=C/c1cccc(Br)n1)c1ccccc1
Reply: -1.36

Ask: Would you kindly share the measured thermal shift delta Tm for O=C(NOCC1CC1)c1ccc(F)c(F)c1Nc1ccc(I)cc1Cl ?
Reply: 1.97

Ask: Please look up its thermal shift delta Tm: C[C@@H]1CN(C(=O)c2ccc(NC(=O)c3cc(O[C@H](C)c4c(Cl)ccc(F)c4Cl)c(N)nn3)cc2)C[C@H](C)N1
Reply: 12

Ask: Can you share its thermal shift delta Tm? I mean this compound: Cc1c(C(=O)Nc2ccc(Oc3ccnc4[nH]cc(-c5ccccc5)c34)c(F)c2)c(=O)n(-c2ccc(F)cc2)n1C
Reply: 6.85

Ask: Can you share its thermal shift delta Tm? I mean this compound: Cc1cc(C(=O)Nc2nc3cccc(Cl)c3n2[C@@H]2CCCCN(C(=O)/C=C/CN(C)C)C2)ccn1 [Nazartinib (EGF816, NVS-816)]
Reply: 1.69

Ask: What measured thermal shift delta Tm goes with CCCCNc1ncc(C(=O)NCc2ccc(-n3ccnc3)cc2)c(NC2CCC(O)CC2)n1 (centres undefined) ?
Reply: 7.7

Ask: Using the record for Cc1cc(Nc2ncnc3ccc(-c4ccc(CNCCS(C)(=O)=O)o4)cc23)ccc1Oc1ccn2ncnc2c1 , report its thermal shift delta Tm.
Reply: 2.21

Ask: Query (compound): CCN1CCN(Cc2ccc(-c3cc4c(N[C@H](C)c5ccccc5)ncnc4[nH]3)cc2)CC1 ; field requested: thermal shift delta Tm
Reply: 3.81

Ask: So what does the record say about thermal shift delta Tm for CN1CCN(c2ccc(-c3ccncc3-c3cc(F)c(O)c(F)c3)cc2)CC1 ?
Reply: 1.22

Ask: Recorded thermal shift delta Tm of O=C(O)c1ccc2c(c1)nc(Nc1cccc(Cl)c1)c1ccncc12 , please.
Reply: 2.72

Ask: Field request: thermal shift delta Tm | item: COc1ccc([C@@H]2OC[C@H]3[C@@H]2CO[C@@H]3c2ccc(O[C@@H]3O[C@H](CO)[C@@H](O)[C@H](O)[C@H]3O)c(OC)c2)cc1OC
Reply: 0.19

Ask: Given CN(C)CCCn1cc(C2=C(c3c[nH]c4ccccc34)C(=O)NC2=O)c2ccccc21 , state its recorded thermal shift delta Tm.
Reply: 0.09

Ask: Please look up its thermal shift delta Tm: Cn1cc(-c2ccc3nnc(Sc4ccc5ncccc5c4)n3n2)cn1
Reply: 1.81

Ask: Recorded thermal shift delta Tm of O=C1Cc2c([nH]c3ccc(Br)cc23)-c2ccccc2N1 , please.
Reply: 2.5

Ask: May I ask what thermal shift delta Tm has been recorded for C=C[C@@](C)(/C=C/c1ccc(O)cc1)CCC=C(C)C ?
Reply: 0.29
